- condition info: in propylene glycol, 323.15 K
parameter measured: solubility (mole fraction)
Keep the answer to the number alone.

What value of solubility (mole fraction) has been recorded for this entry: "O=c1cnc(Br)c[nH]1"
0.00187

---

- condition info: in propylene glycol, 313.15 K
parameter measured: solubility (mole fraction)
// print number alone

Entry "O=c1cnc(Br)c[nH]1" : reported solubility (mole fraction) = ?
0.00121

---

- condition info: in acetone, 303.15 K
parameter measured: solubility (mole fraction)
// response body must contain only the number

Can you share its solubility (mole fraction)? I mean this molecule: "O=c1cnc(Br)c[nH]1"
0.0161

---

- condition info: in acetone, 288.15 K
parameter measured: solubility (mole fraction)

For "O=c1cnc(Br)c[nH]1" , what is its reported solubility (mole fraction)?
0.00877
